Taken from patent US20220281841A1.

# tested-system: ROCK1 (Homo sapiens)
# Construct: purchased DiscoverX (KINOMEscan KdELECT service); host or cells: E. coli BL21-derived (T7 phage) or HEK-293
# Sequence (Q13464 whole entry): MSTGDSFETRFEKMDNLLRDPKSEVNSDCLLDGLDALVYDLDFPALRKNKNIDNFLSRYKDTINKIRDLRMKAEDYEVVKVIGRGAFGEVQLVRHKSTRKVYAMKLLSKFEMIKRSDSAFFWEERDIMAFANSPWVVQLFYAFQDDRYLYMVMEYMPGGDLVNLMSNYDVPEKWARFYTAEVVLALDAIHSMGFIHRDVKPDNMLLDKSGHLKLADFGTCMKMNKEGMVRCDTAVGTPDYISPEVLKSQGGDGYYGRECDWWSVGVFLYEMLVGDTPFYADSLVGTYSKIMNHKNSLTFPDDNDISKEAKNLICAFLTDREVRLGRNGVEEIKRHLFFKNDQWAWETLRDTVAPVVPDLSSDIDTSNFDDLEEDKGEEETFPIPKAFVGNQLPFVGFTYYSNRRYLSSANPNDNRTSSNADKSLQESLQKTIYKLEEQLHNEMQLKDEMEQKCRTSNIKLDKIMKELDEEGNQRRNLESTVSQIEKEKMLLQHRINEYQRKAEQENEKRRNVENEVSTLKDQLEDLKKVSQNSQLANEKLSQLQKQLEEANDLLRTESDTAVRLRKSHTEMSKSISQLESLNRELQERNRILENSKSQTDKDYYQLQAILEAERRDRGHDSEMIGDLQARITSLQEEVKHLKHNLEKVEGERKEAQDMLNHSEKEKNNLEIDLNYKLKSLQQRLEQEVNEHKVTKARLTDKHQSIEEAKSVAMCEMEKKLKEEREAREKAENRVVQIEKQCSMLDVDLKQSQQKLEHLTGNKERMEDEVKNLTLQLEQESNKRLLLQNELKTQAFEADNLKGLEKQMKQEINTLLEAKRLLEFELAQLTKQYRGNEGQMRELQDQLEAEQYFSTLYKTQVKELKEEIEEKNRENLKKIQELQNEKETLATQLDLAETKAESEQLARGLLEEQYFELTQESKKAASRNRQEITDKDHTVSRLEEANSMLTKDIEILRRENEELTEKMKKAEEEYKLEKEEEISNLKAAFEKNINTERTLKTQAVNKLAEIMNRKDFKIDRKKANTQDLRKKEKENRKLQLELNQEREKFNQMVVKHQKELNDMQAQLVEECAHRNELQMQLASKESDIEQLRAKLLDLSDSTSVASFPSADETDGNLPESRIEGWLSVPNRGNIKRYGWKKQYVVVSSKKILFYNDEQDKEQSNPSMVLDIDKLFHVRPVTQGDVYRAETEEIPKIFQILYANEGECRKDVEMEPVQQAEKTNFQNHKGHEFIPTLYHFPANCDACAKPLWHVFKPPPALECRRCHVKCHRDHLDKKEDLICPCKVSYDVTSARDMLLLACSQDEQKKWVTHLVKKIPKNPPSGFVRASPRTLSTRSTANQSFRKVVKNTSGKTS
# procedure-details: ROCK1 kinase binding affinity, DiscoverX KINOMEscan KdELECT
# condition-label: equilibrium dissociation constant, 11-point 3-fold dilution series
I'd appreciate it if you could supply Kd values for the items below.

The following compounds have reported results that may help.
# record-smiles, tested-system, Kd
records = [
    ("COc1ccc2c(c1)CN(c1nccc(-c3cccc(C#Cc4cc(F)c5[nH]ncc5c4)n3)n1)C2", "ROCK1 (Homo sapiens)", "> 30 µM"),
    ("COc1ccc2c(c1)CN(c1nccc(-c3cc(F)cc(C#Cc4ccc5[nH]ncc5c4)c3)n1)C2", "ROCK1 (Homo sapiens)", "> 30 µM"),
    ("COc1cc2c(cn1)CN(c1nccc(-c3nccc(C#Cc4ccc5[nH]ncc5c4)n3)n1)C2", "ROCK1 (Homo sapiens)", "> 6 µM"),
]

Next, consider the following compound.
Query :: Please report the recorded Kd for CNC(=O)c1ccc(C#Cc2ccnc(-c3ccnc(N4Cc5ccc(OC)cc5C4)n3)n2)cc1 .
Result :: > 30 µM

----------
# tested-system: ROCK1 (Homo sapiens)
# Construct: purchased DiscoverX (KINOMEscan KdELECT service); host or cells: E. coli BL21-derived (T7 phage) or HEK-293
# procedure-details: ROCK1 kinase binding affinity, DiscoverX KINOMEscan KdELECT
# condition-label: equilibrium dissociation constant, 11-point 3-fold dilution series
Where a name gives a salt, the structure may show the parent alone.
Please go through the items and note down their Kd.

# compound, Kd
rows = [
    ("Fc1cc(C#Cc2ccc3[nH]ncc3c2)cc(-c2ccnc(N3Cc4ccc(Br)cc4C3)n2)c1", "> 30 µM"),
    ("CN1CCN(c2ccc3c(c2)CN(c2nccc(-c4cc(F)cc(C#Cc5ccc6[nH]ncc6c5)c4)n2)C3)CC1", "> 30 µM"),
]

Please look at the items below and tell me Kd for each one, in order.
1. Fc1ccc2c(c1)CN(c1nccc(-c3cccc(C#Cc4cc(F)c5[nH]ncc5c4)n3)n1)C2
2. COC(=O)c1ccc(C2CN(c3nccc(-c4nccc(C#Cc5ccc6[nH]ncc6c5)n4)n3)C2)cc1 [Ex. 49, trifluoroacetate]
3. COc1ccc2c(c1)CN(c1nccc(-c3nccc(C#Cc4ccncc4)n3)n1)C2
4. CN(C)C(=O)COc1ccc2c(c1)CN(c1nccc(-c3nccc(C#Cc4ccc5[nH]ncc5c4)n3)n1)C2
5. COc1ccc2c(c1)CN(c1nccc(-c3nccc(C#Cc4ccc5c(c4)CNC5=O)n3)n1)C2
6. Fc1ccc2c(c1)CN(c1nccc(-c3cccc(C#Cc4ccc5[nH]ncc5c4)n3)n1)C2
7. CN1CCN(c2ccc3c(c2)CN(c2nccc(-c4cccc(C#Cc5ccc6[nH]ncc6c5)n4)n2)C3)CC1

Result ::
1: > 30 µM; 2: > 30 µM; 3: > 30 µM; 4: > 30 µM; 5: > 30 µM; 6: > 30 µM; 7: > 30 µM

----------
For each of the molecules below, state its ROCK 2 Selectivity.
# tested-system: ROCK2 (Homo sapiens)
# Construct: purchased DiscoverX (KINOMEscan KdELECT service); host or cells: E. coli BL21-derived (T7 phage) or HEK-293
# Sequence (O75116 whole entry): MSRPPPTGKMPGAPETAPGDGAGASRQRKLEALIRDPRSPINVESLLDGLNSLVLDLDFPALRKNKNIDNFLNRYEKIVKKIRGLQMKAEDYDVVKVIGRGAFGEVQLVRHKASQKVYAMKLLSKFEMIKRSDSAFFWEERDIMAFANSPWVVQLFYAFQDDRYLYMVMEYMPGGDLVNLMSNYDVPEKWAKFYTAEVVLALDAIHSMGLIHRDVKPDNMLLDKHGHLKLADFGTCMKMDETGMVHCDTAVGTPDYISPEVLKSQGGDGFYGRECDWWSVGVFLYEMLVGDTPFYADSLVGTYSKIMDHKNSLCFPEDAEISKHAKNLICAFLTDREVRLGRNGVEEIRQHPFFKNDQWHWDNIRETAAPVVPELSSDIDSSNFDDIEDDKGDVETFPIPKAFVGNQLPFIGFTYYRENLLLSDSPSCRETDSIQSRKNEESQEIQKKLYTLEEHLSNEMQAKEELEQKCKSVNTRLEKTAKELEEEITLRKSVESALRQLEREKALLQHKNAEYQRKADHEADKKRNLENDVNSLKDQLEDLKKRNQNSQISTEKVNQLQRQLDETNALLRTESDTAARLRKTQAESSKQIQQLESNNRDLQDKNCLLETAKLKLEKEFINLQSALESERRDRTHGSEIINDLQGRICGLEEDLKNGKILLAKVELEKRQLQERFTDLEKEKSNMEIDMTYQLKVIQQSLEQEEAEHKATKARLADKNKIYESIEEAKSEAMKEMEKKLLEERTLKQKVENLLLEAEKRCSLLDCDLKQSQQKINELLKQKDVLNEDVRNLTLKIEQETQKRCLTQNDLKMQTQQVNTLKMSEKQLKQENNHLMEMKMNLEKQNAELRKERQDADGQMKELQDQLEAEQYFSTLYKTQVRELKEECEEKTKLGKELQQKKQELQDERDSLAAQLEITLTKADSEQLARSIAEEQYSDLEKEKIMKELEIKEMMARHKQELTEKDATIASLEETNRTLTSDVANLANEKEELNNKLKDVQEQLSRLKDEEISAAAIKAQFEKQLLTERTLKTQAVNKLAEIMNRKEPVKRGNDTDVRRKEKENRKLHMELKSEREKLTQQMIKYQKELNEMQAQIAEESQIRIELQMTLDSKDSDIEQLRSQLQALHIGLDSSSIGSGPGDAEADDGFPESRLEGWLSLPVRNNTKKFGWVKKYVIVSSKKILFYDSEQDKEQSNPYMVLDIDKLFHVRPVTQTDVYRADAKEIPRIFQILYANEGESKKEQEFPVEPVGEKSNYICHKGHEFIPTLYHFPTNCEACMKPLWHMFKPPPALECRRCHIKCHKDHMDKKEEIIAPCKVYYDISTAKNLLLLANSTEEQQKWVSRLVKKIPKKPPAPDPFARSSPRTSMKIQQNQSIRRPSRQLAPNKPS
# procedure-details: ROCK2 kinase binding affinity, DiscoverX KINOMEscan KdELECT
# condition-label: ROCK2 over ROCK1, from Kd values; N/C = not calculated

# record-smiles, endpoint-result
data = [
    ("Clc1cc2c(cn1)CN(c1nccc(-c3nccc(C#Cc4ccc5[nH]ncc5c4)n3)n1)C2", ">122"),
    ("COc1ccc2c(c1)CN(c1nccc(-c3cccc(C#Cc4cc(F)c5[nH]ncc5c4)n3)n1)C2", ">10.7"),
    ("COc1ccc2c(c1)CN(c1nccc(-c3nccc(C#Cc4cnc5[nH]ncc5c4)n3)n1)C2", ">44.1"),
]

// batch mode: one ROCK 2 Selectivity value per listed entry
1. Fc1cc(C#Cc2ccc3[nH]ncc3c2)cc(-c2ccnc(N3Cc4ccc(Cl)cc4C3)n2)c1
2. Fc1ccc2c(c1)CN(c1nccc(-c3cccc(C#Cc4ccc5[nH]ncc5c4)n3)n1)C2
3. Fc1ccc2c(c1)CN(c1nccc(-c3nccc(C#Cc4ccc5[nH]nc(F)c5c4)n3)n1)C2
4. Fc1ccc2c(c1)CN(c1nccc(-c3nccc(C#Cc4cc(F)c5[nH]ncc5c4)n3)n1)C2
5. Fc1ccc2c(c1)CN(c1nccc(-c3cccc(C#Cc4cc(F)c5[nH]ncc5c4)n3)n1)C2
6. CN(C)C(=O)COc1ccc2c(c1)CN(c1nccc(-c3nccc(C#Cc4ccc5[nH]ncc5c4)n3)n1)C2

Result ::
[">6.67", ">5.4", ">411", ">1071", ">4.4", ">273"]

Take each entry in turn and give its ROCK 2 Selectivity.
1. C(#Cc1ccnc(-c2ccnc(N3CCN(c4nccs4)CC3)n2)n1)c1ccc2[nH]ncc2c1
2. COc1cc2c(cn1)CN(c1nccc(-c3nccc(C#Cc4ccc5[nH]ncc5c4)n3)n1)C2

Result ::
1: >90.9; 2: >35
